target: human GLP-2 receptor (Homo sapiens, UniProt O95838); construct: host or cells: COS-7 (transient, calcium phosphate; pCMV-Script vector); experiment: cAMP accumulation assay (HitHunter cAMP XS) in transiently transfected COS-7 cells expressing the human GLP-2 receptor; format: cell-based; conditions: COS-7, read-out: Emax (10 μM), GLP-2 receptor
Sequence (O95838 whole entry): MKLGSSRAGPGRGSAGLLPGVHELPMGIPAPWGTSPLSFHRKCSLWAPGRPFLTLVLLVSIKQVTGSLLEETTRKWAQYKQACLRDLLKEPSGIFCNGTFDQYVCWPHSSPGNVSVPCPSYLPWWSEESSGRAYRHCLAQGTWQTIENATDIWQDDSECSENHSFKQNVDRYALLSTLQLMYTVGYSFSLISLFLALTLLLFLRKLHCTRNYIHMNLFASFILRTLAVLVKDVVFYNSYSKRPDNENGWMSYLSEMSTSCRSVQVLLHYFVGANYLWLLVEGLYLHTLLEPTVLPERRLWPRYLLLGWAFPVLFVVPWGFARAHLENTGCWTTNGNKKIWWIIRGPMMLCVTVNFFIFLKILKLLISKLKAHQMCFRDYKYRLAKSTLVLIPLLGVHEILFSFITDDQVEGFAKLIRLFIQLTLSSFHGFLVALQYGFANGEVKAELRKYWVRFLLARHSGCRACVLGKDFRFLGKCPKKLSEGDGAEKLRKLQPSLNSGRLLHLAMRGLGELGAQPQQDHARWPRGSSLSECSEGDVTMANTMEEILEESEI
Ends that are not written are not given here.
Reported metric: Emax at 10 µM (%)
Number only, in %; omit the unit.

Biosequence	Reported metric	Assay value
HAEGTFISDMNTILDNLAARDFINWLIQTKITD [Co-agonist 6]	Emax at 10 µM	70
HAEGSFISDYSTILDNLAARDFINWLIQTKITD [Co-agonist 4]	Emax at 10 µM	90
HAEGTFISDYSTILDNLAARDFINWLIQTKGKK [Co-agonist 10]	Emax at 10 µM	77
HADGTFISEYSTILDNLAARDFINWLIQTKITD [Co-agonist 15]	Emax at 10 µM	104
HADGTFISDYSTILDNLAARDFINWLIQTKGTD [Co-agonist 16]	Emax at 10 µM	74

Proceeding to the next sequence to report its Emax at 10 µM.
Exercise: So what Emax at 10 µM did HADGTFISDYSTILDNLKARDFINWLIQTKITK [Co-agonist 27] get with human GLP-2 receptor (Homo sapiens, UniProt O95838)?
Key: 100
